Origin of measurements: PubChem BioAssay (EPA / NIEHS)

- MEASUREMENT_NOTES: ATG_EGR_CIS: Attagene CIS-FACTORIAL HepG2 Assay for human Early Growth Response 1 (EGR1) (AID 2282938)
- ASSAY_CONTEXT: HepG2 Attagene CIS-FACTORIAL EGR reporter mRNA; actives raise or lower the signal
Calls of active or inactive are those of the source. How the source made its calls: active means hit-call score of the fitted dose curve at least 0.9, where 1 is the maximum; inactive means score below 0.9.
METRIC_NAME: outcome

Example cases with answers are listed next.
{"COMPOUND": "CCOc1cc(Oc2ccc(C(F)(F)F)cc2Cl)ccc1[N+](=O)[O-]", "ASSAY_RESULT": "inactive"}
{"COMPOUND": "C=CCC1=C(C)[C@@H](OC(=O)[C@@H]2[C@@H](C=C(C)C)C2(C)C)CC1=O", "ASSAY_RESULT": "inactive"}
{"COMPOUND": "CN(C)C(=S)SSC(=S)N(C)C", "ASSAY_RESULT": "inactive"}
{"COMPOUND": "COc1nc(C)nc(NC(=O)NS(=O)(=O)c2ccccc2CCC(F)(F)F)n1", "ASSAY_RESULT": "inactive"}
{"COMPOUND": "COc1nc(NC(C)C)nc(NC(C)C)n1", "ASSAY_RESULT": "inactive"}
{"COMPOUND": "CCCN(CCC)c1c([N+](=O)[O-])cc(S(N)(=O)=O)cc1[N+](=O)[O-]", "ASSAY_RESULT": "inactive"}

outcome for CCCCC(CC)COC(=O)c1ccccc1C(=O)OCC(CC)CCCC (stereo not given) ?
inactive

What about this compound? CCc1nn(C)c(C(=O)NCc2ccc(C(C)(C)C)cc2)c1Cl
inactive

How about N#CC(CCc1ccc(Cl)cc1)(Cn1cncn1)c1ccccc1 (stereo not given) ?
inactive

Let us now turn to Fc1ccc(Oc2ccnc3cc(Cl)cc(Cl)c23)cc1
inactive
